assay_summary: DMXAA plasma pharmacokinetic studies (HPLC assay)
Format: in vivo, mice
particulars: mouse, plasma, ip; 0-6 hours; DMXAA 25 mg/kg i.p. alone or with diclofenac 5 mg/kg
outcome_measure: AUC (µM·h)

molecule="Cc1ccc2c(=O)c3cccc(CC(=O)O)c3oc2c1C [DMXAA, 5,6-dimethylxanthenone-4-acetic acid]" unit=µM·h reading=1330

----------
assay_summary: DMXAA plasma pharmacokinetic studies (HPLC assay)
Type: in vivo, mice
particulars: mouse, plasma, ip; DMXAA 25 mg/kg i.p. alone or with diclofenac 5 mg/kg
Experimental: DMXAA was synthesized as the sodium salt (Rewcastle et al (1990) Journal of National Cancer Institute 82:528-529). DMXAA sodium salt was dissolved in sterile water and 25 mg/kg in a volume of 0.1 ml per 10 g body weight was injected intraperitoneally (i.p.) into mice. Diclofenac (Sigma) was dissolved in dimethylsulphoxide, and was injected i.p. into mice in a volume of 25 μl per 10 g body weight. The required dose of diclofenac was injected concurrently with DMXAA.
outcome_measure: half-life (h)

compound_structure_string=Cc1ccc2c(=O)c3cccc(CC(=O)O)c3oc2c1C outcome_measure=half-life reading=2.7

Origin of values: patent US7462642B2
